assay.system: UniProtKB P32247
Sequence (P32247 whole entry): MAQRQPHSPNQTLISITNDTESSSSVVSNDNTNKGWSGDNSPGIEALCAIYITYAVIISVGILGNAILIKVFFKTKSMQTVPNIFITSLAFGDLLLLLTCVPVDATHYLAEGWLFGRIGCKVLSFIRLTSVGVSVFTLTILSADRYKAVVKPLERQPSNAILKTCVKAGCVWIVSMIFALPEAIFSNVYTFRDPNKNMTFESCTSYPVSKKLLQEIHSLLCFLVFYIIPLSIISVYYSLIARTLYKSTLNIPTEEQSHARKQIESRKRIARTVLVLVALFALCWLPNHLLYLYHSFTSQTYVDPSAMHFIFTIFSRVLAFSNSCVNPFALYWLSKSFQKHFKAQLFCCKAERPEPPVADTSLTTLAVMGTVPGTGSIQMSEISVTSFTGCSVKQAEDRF
experiment.description: Agonist activity at human BRS3 by functional assay
outcome.measure: EC50 (nM)

Take a look at these entries with their results.
[[record]]
compound = "CC(C)(C)NC(=O)NS(=O)(=O)c1cnccc1O[C@@H]1C[C@@H]2CC[C@H]1C2"
assay_system = "UniProtKB P32247"
output_unit = "nM"
recorded_number = 1600

[[record]]
compound = "CN(C(=O)NS(=O)(=O)c1cnccc1N[C@@H]1C[C@H]2CC[C@@H]1C2)C(C)(C)C (racemic)"
assay_system = "UniProtKB P32247"
output_unit = "nM"
recorded_number = 640


A = CC(C)NC(=O)NS(=O)(=O)c1cnccc1N[C@H]1C[C@H]2CC[C@@H]1C2 (racemic)
B = CC(C)(C)c1csc(NS(=O)(=O)c2cnccc2N[C@@H]2C[C@H]3CC[C@@H]2C3)n1 (racemic)
Query: Lab log: flag the item ( A or B ) with the smaller EC50 figure. Write down the label of the entry you select.
Response: A

a = CC(C)(C)NC(=O)NS(=O)(=O)c1cnccc1N[C@@H]1C[C@H]2CC[C@@H]1C2 (racemic)
b = CC(C)(C)c1cc(NS(=O)(=O)c2cnccc2N[C@@H]2C[C@H]3CC[C@@H]2C3)[nH]n1 (racemic)
Query: Lab log: flag the item ( a or b ) with the smaller EC50 figure. Write down the label of the entry you select.
Response: a

* * *

experiment.description: Half life in Sprague-Dawley rat at 1 mg/kg, iv or 4 mg/kg, po
Format: ADME, organism-based
condition.description: in vivo
outcome.measure: half-life (h)

I = CCC(C)(C)NC(=O)NS(=O)(=O)c1cnccc1NC1CC2CCC1C2 (racemic)
II = CC(C)(C)NC(=O)NS(=O)(=O)c1cnccc1NC1CC2CCC1C2 (racemic)
Query: Pick the one with the larger half-life: I vs II Write down the label of the entry you select.
Response: II

* * *

experiment.description: Mean residence time in Sprague-Dawley rat at 1 mg/kg, iv or 4 mg/kg, po
Assay type: ADME, organism-based
condition.description: in vivo
outcome.measure: MRT (min)

I = CCC(C)(C)NC(=O)NS(=O)(=O)c1cnccc1NC1CC2CCC1C2 (racemic)
II = CC(C)(C)NC(=O)NS(=O)(=O)c1cnccc1NC1CC2CCC1C2 (racemic)
Query: Pick the one with the larger MRT: I vs II Write down the label of the entry you select.
Response: II
(II: 39.6 min, I: 11.4 min)

* * *

assay.system: UniProtKB P32247
Sequence (P32247 whole entry): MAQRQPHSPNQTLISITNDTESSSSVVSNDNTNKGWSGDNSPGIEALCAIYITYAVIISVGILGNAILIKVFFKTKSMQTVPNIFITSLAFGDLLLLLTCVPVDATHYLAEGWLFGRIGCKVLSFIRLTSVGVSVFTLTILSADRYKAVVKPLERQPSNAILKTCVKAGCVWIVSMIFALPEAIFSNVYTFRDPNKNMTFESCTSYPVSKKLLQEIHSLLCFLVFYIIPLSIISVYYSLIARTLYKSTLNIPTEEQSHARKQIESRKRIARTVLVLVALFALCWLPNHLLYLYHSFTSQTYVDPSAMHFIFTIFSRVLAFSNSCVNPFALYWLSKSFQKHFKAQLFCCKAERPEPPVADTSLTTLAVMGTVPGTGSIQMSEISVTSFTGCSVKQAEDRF
experiment.description: Agonist activity at human BRS3 by functional assay
pEC50: −log10 of the molar value.
outcome.measure: pEC50

[[record]]
compound = "CC(C)(C)NC(=O)NS(=O)(=O)c1cnccc1NC1CCCCC1"
recorded_number = 6.35

[[record]]
compound = "CCC(C)(C)NC(=O)NS(=O)(=O)c1cnccc1N[C@@H]1C[C@H]2CC[C@@H]1C2 (racemic)"
recorded_number = 7.29

[[record]]
compound = "O=S(=O)(Nc1nnc(C2CCC2)[nH]1)c1cnccc1N[C@@H]1C[C@H]2CC[C@@H]1C2 (racemic)"
recorded_number = 5.92


I = CC(C)(C)NC(=O)NS(=O)(=O)c1cnccc1N[C@H]1C[C@H]2CC[C@@H]1C2 (racemic)
II = CC(C)(C)NC(=O)NS(=O)(=O)c1cnccc1N[C@H]1C[C@@H]2CC[C@H]1C2
III = CC(C)(C)NC(=O)NS(=O)(=O)c1ccccc1N[C@@H]1C[C@H]2CC[C@@H]1C2 (racemic)
IV = CC(C)(C)NC(=O)NS(=O)(=O)c1cnccc1N[C@@H]1C[C@H]2CC[C@@H]1C2
V = CC(C)c1n[nH]c(NS(=O)(=O)c2cnccc2N[C@@H]2C[C@H]3CC[C@@H]2C3)n1 (racemic)
Query: Order the entries by their reported pEC50, beginning at the minimum. The response must list the labels following the requested ordering.
Response: III, V, II, I, IV
(III: 5.19, V: 5.40, II: 6.14, I: 6.80, IV: 7.26)

I = O=C(NC12CC3CC(CC(C3)C1)C2)NS(=O)(=O)c1cnccc1N[C@@H]1C[C@H]2CC[C@@H]1C2 (mixture of isomers)
II = CC(C)(C)CC(=O)NS(=O)(=O)c1cnccc1N[C@@H]1C[C@H]2CC[C@@H]1C2 (racemic)
III = CC(C)(C)c1cccc(NS(=O)(=O)c2cnccc2N[C@@H]2C[C@H]3CC[C@@H]2C3)c1 (racemic)
IV = CC(C)(C)NC(=O)NS(=O)(=O)c1cnccc1N[C@H]1C[C@H]2CC[C@]1(C)C2(C)C
Query: Order the entries by their reported pEC50, beginning at the minimum. The response must list the labels following the requested ordering.
Response: II, III, IV, I

A = CC(C)(C)NC(=O)NS(=O)(=O)c1cnccc1NC(C)(C)c1ccccc1
B = CC(C)(C)NC(=O)NS(=O)(=O)c1cnccc1O[C@@H]1C[C@H]2CC[C@@H]1C2 (racemic)
Query: Pick the one with the larger pEC50: A vs B Write down the label of the entry you select.
Response: B

1 = CN(C(=O)NC(C)(C)C)S(=O)(=O)c1cnccc1N[C@@H]1C[C@H]2CC[C@@H]1C2 (racemic)
2 = CC(C)(C)NC(=O)NS(=O)(=O)c1cnccc1N[C@@H]1C[C@H]2CC[C@]1(C)C2(C)C
Query: Lab log: flag the item ( 1 or 2 ) with the smaller pEC50 figure. Write down the label of the entry you select.
Response: 1
(1: 5.08, 2: 5.77)

* * *

assay.system: Neuromedin-B receptor (Homo sapiens)
pEC50: −log10 of the molar value.
outcome.measure: pEC50

# pEC50 (molecule: CC(C)(C)NC(=O)NS(=O)(=O)c1cnccc1NC1CC2CCC1C2 (stereo unspecified) ) is < 5.00

* * *

experiment.description: Bioavailability in Sprague-Dawley rat at 1 mg/kg, iv or 4 mg/kg, po
Format: ADME, organism-based
condition.description: in vivo
outcome.measure: bioavailability (%)

I = CC(C)(C)NC(=O)NS(=O)(=O)c1cnccc1NC1CC2CCC1C2 (racemic)
II = CCC(C)(C)NC(=O)NS(=O)(=O)c1cnccc1NC1CC2CCC1C2 (racemic)
Query: Pick the one with the larger bioavailability: I vs II Write down the label of the entry you select.
Response: I

* * *

assay.system: Bombesin receptor subtype-3 (Homo sapiens, UniProt P32247)
Sequence (P32247 whole entry): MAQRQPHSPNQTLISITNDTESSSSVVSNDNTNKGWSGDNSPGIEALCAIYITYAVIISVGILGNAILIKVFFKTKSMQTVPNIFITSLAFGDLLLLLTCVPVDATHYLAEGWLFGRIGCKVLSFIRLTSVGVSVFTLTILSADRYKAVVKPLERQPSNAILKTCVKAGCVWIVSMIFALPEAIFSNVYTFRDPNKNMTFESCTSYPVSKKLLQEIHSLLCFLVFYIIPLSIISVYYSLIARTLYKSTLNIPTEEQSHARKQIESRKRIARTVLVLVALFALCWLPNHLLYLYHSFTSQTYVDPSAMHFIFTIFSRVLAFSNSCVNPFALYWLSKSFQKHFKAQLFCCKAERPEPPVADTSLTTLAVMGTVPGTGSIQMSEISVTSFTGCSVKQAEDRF
experiment.description: Binding affinity to human BRS3
pIC50: −log10 of the molar value.
outcome.measure: pIC50

[[record]]
compound = "CC(C)(C)NC(=O)NS(=O)(=O)c1cnccc1N[C@@H]1C[C@H]2CC[C@@H]1C2"
recorded_number = 7.17

[[record]]
compound = "O=C(NC12CC3CC(CC(C3)C1)C2)NS(=O)(=O)c1cnccc1N[C@@H]1C[C@H]2CC[C@@H]1C2 (mixture of isomers)"
recorded_number = 6.51

[[record]]
compound = "CC(C)(C)NC(=O)NS(=O)(=O)c1cnccc1N[C@@H]1C[C@H]2CC[C@]1(C)C2(C)C"
recorded_number = 6.18

[[record]]
compound = "CC(C)(C)c1cc(NS(=O)(=O)c2cnccc2N[C@@H]2C[C@H]3CC[C@@H]2C3)[nH]n1 (racemic)"
recorded_number = 6.60

[[record]]
compound = "O=S(=O)(Nc1nc(C2CCC2)n[nH]1)c1cnccc1NC1CC2CCC1C2 (single isomer, unassigned)"
recorded_number = 6.51


A = CC(C)(C)CC(C)(C)NC(=O)NS(=O)(=O)c1cnccc1N[C@@H]1C[C@H]2CC[C@@H]1C2 (racemic)
B = CN(C(=O)NC(C)(C)C)S(=O)(=O)c1cnccc1N[C@@H]1C[C@H]2CC[C@@H]1C2 (racemic)
Query: Pick the one with the larger pIC50: A vs B Write down the label of the entry you select.
Response: A
